The reported numbers originate from paper PMC5540273.

- System: RIPK2
- conditionDetails: concentration: 1 μM, replicates: in singlicate; n = 1;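 note: KINOMEscan kinase panel screen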
Recorded %Inh determines the label; the label ranges are low-valued = under 6%, mid-valued = from 6% up to 60%, high-valued = 60% and over

These recorded examples may help you get a feel for the data.
INSERT INTO assay_data (molecule, classlabel) VALUES
  ('Cl.Cl.NC(CNC(=O)c1cc(Br)c(-c2ccnc3[nH]ccc23)s1)c1ccccc1 (stereo not shown)', 'low-valued'),
  ('CC(=O)Nc1cn2nc(Oc3cccc(NC(=O)c4cccc(C(F)(F)F)c4)c3)ccc2n1', 'high-valued'),
  ('O=C(O)C(F)(F)F.O=c1[nH]ccc2nc(N[C@@H]3CCNC3)nc(Nc3cc(Cl)cc(Cl)c3)c12', 'mid-valued');

Band of CN1CCN(Cc2ccc(NC(=O)Nc3ccc(N(C)c4ccnc(Nc5ccc(CS(C)(=O)=O)cc5)n4)cc3)cc2)CC1.Cl ? mid-valued

Hey, which category is CCn1cnc2c(NCc3ccccc3)ncnc21 in, do you know? low-valued

Sort into band: N#Cc1cnc2cc(-c3cnc(CNCCN4CCOCC4)s3)ccc2c1Nc1ccc(Oc2ccccc2)cc1 mid-valued

Which %Inh band matches CN(C)c1ncnc2nc[nH]c12 ? low-valued

For COc1cc(Nc2nccc(N3CCC(NS(=O)(=O)c4ccc(NC(C)=O)cc4)CC3)n2)cc(OC)c1OC , which %Inh bin applies? high-valued

Given CN(c1ccc(NC(=O)Nc2cccc(Cl)c2)cc1)c1ccnc(N)n1.Cl , name the class its %Inh places it in. low-valued

Please indicate the class for Cc1ccc(-c2ccc3occ(-c4ccc(S(C)=O)cc4)c3c2)nn1 (stereo not shown) based on its %Inh. low-valued

Place this molecule in its band: COc1ccc(C2=C(Nc3cccc(O)c3)C(=O)NC2=O)cc1 mid-valued

###

- Test system: EPHA3
- conditionDetails: concentration: 1 μM, replicates: in singlicate; n = 1
The reader will find reported %Inh values listed item by item below.
Your answer should be a plain number; it is taken to be in %.

Please review the entries below; each comes with its answer.
INSERT INTO results (compound, endpointlabel, assayresult) VALUES
  ('Cl.Cl.NCC(NC(=O)c1cc(-c2cccnc2)c(-c2ccnc3[nH]ccc23)s1)c1ccccc1 (stereo not shown)', '%Inh', 40),
  ('O=C(Nc1c(F)cccc1F)c1cc(C(=O)c2ccccc2F)c[nH]1', '%Inh', 0),
  ('Cc1ccc(NC(=O)c2cccc(N3CCCCC3)c2)cc1-c1ccc(C(=O)NCC2CC2)cc1', '%Inh', 4);

Notebook: COc1cccc(C2=C(Nc3cccc(O)c3)C(=O)NC2=O)c1 , %Inh read as 0

###

- System: LKB1
- Construct: gene STK11
- conditionDetails: concentration: 1 μM, replicates: in singlicate; n = 1
endpointLabel: %Inh
Don't forget the unit after the number, please.

For this molecule ( Nc1ncnc2scc(-c3ccc(NC(=O)Cc4cc(F)ccc4F)cc3)c12.O=C(O)C(F)(F)F [SB-731254-M] ), measured %Inh is 29%

###

- Test system: EPHB1
- conditionDetails: concentration: 1 μM, replicates: in singlicate; n = 1
endpointLabel: %Inh
Please answer using a numeric value trailed by its unit.

// solved cases for %Inh follow
INSERT INTO assay_data (compoundstructure, assayresult) VALUES
  ('Cc1ccc(O)cc1Nc1ccnc2ccc(C(C)(C)C)cc12', '97.4%'),
  ('CC(C)c1nc(-c2cccc(NS(=O)(=O)c3c(F)cccc3F)c2)c(-c2ccnc(Nc3ccc(N4CCOCC4)nc3)n2)s1.Cl', '24%'),
  ('Cn1cc(-c2ccc3c(c2)CCN3C(=O)Cc2cc(F)cc(C(F)(F)F)c2)c2c(N)ncnc21', '21%'),
  ('CCNC(=O)/C=C/c1n[nH]c2cc(Sc3ccccc3C(=O)NC)ccc12', '0%'),
  ('O=C(Nc1n[nH]c2cc(-c3cccs3)ccc12)C1CC1', '0%'),
  ('COC(=O)Nc1nc2ccc(Oc3ccc(NC(=O)Nc4cc(C(F)(F)F)ccc4F)cc3)cc2[nH]1.Cl', '81%'),
  ('Cc1cc(-c2c(-c3ccc(F)cc3)ncn2CCCN2CCOCC2)nc(N)n1', '0%'),
  ('COc1cc(Nc2nccc(N3CCC(NS(=O)(=O)c4ccc(NC(C)=O)cc4)CC3)n2)cc(OC)c1OC', '6%');

# %Inh of Cc1cccc(Nc2nc(N[C@H]3CCCC[C@H]3N)ncc2C(N)=O)c1.Cl = 32%

%Inh reading for CCn1cnc2c(NCc3ccccc3)ncnc21 : 0%

###

- System: HASPIN
- Construct: gene GSG2
- conditionDetails: concentration: 1 μM, replicates: in singlicate; n = 1
// %Inh lookup, one value per entry
Write down the numeric answer in % and omit the unit.

Here are 6 compounds together with their reported answers.
INSERT INTO assay_data (compound, studysystem, assayresult) VALUES
  ('O=C1NC(=O)C(c2ccccc2Cl)=C1Nc1cccc(Cl)c1 [SB-342409]', 'HASPIN', 0),
  ('Cc1cc(-c2c(-c3ccc(F)cc3)ncn2CCCN2CCOCC2)nc(N)n1 [SB-222517]', 'HASPIN', 0),
  ('Cl.O=C(Nc1ccc(Oc2ccc3[nH]c(NC(=O)c4ccco4)nc3c2)cc1)Nc1cc(C(F)(F)F)ccc1F [GW683134]', 'HASPIN', 0),
  ('Fc1cc(Cl)ccc1Nc1ccnc2cc(-c3ccc(CN4CCOCC4)o3)ccc12 [GW560109]', 'HASPIN', 0),
  ('Cn1cc(-c2cnc(N)c3c(-c4ccc5c(c4)CCN5C(=O)Cc4ccccc4)csc23)cn1 [GSK2593074]', 'HASPIN', 0),
  ('Cl.N#CCc1ccc(Nc2nccc(Nc3ccc(Oc4ccccc4)cc3)n2)cc1 [GW639905]', 'HASPIN', 0);

Value of measured %Inh for the entry COc1cccc(CC(=O)N2CCc3cc(-c4cn(C)c5ncnc(N)c45)ccc32)c1 [GSK2608899] : 0

compound Cn1cc(-c2ccc3c(c2)CCN3C(=O)Cc2cc(F)cc(C(F)(F)F)c2)c2c(N)ncnc21 [GSK2635225] , %Inh observed: 9

###

- Tested on: EPHA4
- conditionDetails: concentration: 1 μM, replicates: in singlicate; n = 1
Examples of compounds with documented %Inh follow.
Hey, just the number and the unit after it is fine.

Record CN(c1ccc(NC(=O)N2CCN(CCCN3CCOCC3)CC2)cc1)c1ccnc(Nc2ccc(CS(C)(=O)=O)cc2)n1.Cl . Reported %Inh: 4%

The value of %Inh measured for the compound COC(=O)Nc1nc2ccc(Oc3ccc(NC(=O)Nc4cc(C(F)(F)F)ccc4F)cc3)cc2[nH]1.Cl turned out to be 96.8%

Consider CN(C)CCNS(=O)(=O)c1ccc(-c2ccnc3[nH]ccc23)cc1 . Its measured %Inh is 0%

Per the record, Cn1cc(-c2ccc3c(c2)CCN3C(=O)Cc2cc(F)cc(F)c2F)c2c(N)ncnc21 has %Inh of 6%

What the record says about COC(=O)Nc1nc2ccc(Oc3ccc(CC(=O)Nc4cc(C(F)(F)F)ccc4F)cc3)cc2[nH]1 : %Inh is 21%

Summary for this compound, CN(c1ccc(F)c(NC(=O)c2cccc(OC(C)(C)C#N)c2Cl)c1)c1ccc2nc(NC(=O)C3CC3)sc2n1 : %Inh is 20%

So, Cc1nn2c(=O)cc(N3CCO[C@H](C)C3)nc2n1Cc1cccc(Cl)c1Cl ? Its %Inh was 0%

response.value for COc1cccc2c(-c3ccncc3)c(-c3ccc(F)cc3)nn12 (field: %Inh) = 18%

The measured %Inh associated with Nc1ncnc2scc(-c3ccc(NC(=O)Cc4cc(F)ccc4F)cc3)c12.O=C(O)C(F)(F)F reads 24%

response.value for COc1cccc(-c2nc(-c3ccccc3)[nH]c2-c2ccncc2)c1 (field: %Inh) = 17%

Per the records, this compound ( N#CC1(c2cccc(C(=O)Nc3cccc(Oc4ccc5nc(NC(=O)C6CC6)sc5n4)c3)c2)CC1 ) has %Inh equal to 81%

Briefly, %Inh measured for Cc1cccc(Nc2nc(N[C@H]3CCCC[C@H]3N)ncc2C(N)=O)c1.Cl : 6%

# compound CN(c1ccc2c(c1)nc(NCc1ccccc1)n2C)c1ccnc(Nc2ccc(CS(C)(=O)=O)cc2)n1.Cl ; its %Inh = 0%

Reported %Inh for COc1cccc(NC(=O)NCCNc2ccnc(Nc3ccc(F)cc3)n2)c1 was 0%

// recorded %Inh for Cn1cc(-c2ccc3c(c2)CCN3C(=O)Cc2cc(F)cc(C(F)(F)F)c2)c2c(N)ncnc21 : 0%

Value of %Inh reported for the compound COC(=O)Nc1nc2cc(Oc3ccc(NC(=O)Nc4cccc(SC)c4)cc3)ccc2[nH]1.Cl is 64%

The reported %Inh of the compound Cc1ccc(NC(=O)c2cccc(N3CCCCC3)c2)cc1-c1ccc(C(=O)NCC2CC2)cc1 was 37%

The compound identified as CN(C)CCOc1ccc(-c2cc(-c3ccc(Cl)c(O)c3)c(-c3ccncc3)[nH]2)cc1.Cl.Cl registered its %Inh at 10%

Data point: Nc1cccc(-c2ccc3c(N)n[nH]c3c2)c1 ; %Inh = 0%

Consider Cl.Cl.NC(CNC(=O)c1cc(Br)c(-c2ccnc3[nH]ccc23)s1)c1ccccc1 (stereo not drawn) . Its measured %Inh is 0%

The compound identified as CS(=O)(=O)c1cccc(CNc2nc(Nc3ccc4c(c3)CCC(=O)N4)ncc2C(F)(F)F)c1 registered its %Inh at 0%

The compound Nc1ncc(-c2cn[nH]c2)c2scc(-c3ccc4c(c3)CCN4C(=O)Cc3ccccc3)c12 showed %Inh equal to 0%

Record Cc1ccc(O)cc1Nc1ccnc2ccc(C(C)(C)C)cc12 , field %Inh: 91.3%

So for COc1cccc(CC(=O)N2CCc3cc(-c4cn(C)c5ncnc(N)c45)ccc32)c1 , the logged %Inh turned out to be 4%
